Test system: Fibroblast
Assay: Multiplex assay against human fibroblast
Format: toxicity, cell-based
Details: 12 h, 10 µM, compound concentration 10 uM, replicate 1
readout-type: Population Mitotic Cells (%)
Expressed in %, but write only the number.

Examples with their reported Population Mitotic Cells (%) follow.
> print(dat)
                                   compound                  readout.type  unit.name  quantitative.result
1  CN1CCC(=C2c3ccccc3CC(=O)c3sccc32)CC1.O=C(O)/C=C/C(=O)O [KETOTIFEN FUMARATE]  Population Mitotic Cells (%)          %                   26
2  CCn1cc(-c2ccnc3[nH]c(-c4cccc(CN(C)C)c4)cc23)c(-c2ccc(NC(=O)N(C)C)cc2)n1 [GSK-1070916]  Population Mitotic Cells (%)          %                   39
3  CCn1c(=O)c(-c2ccc(-c3cncs3)cc2Cl)cc2cnc(Nc3ccc(N4CCN(C)CC4)cc3)nc21  Population Mitotic Cells (%)          %                   41
4  COCC(=O)NC/C=C/c1ccc2ncnc(Nc3ccc(Oc4ccc(C)nc4)c(C)c3)c2c1 [CP-724714]  Population Mitotic Cells (%)          %                   48
5  C=C1/C(=C\C=C2/CCC[C@]3(C)[C@@H]([C@H](C)/C=C/[C@H](C)C(C)C)CC[C@@H]23)C[C@@H](O)C[C@@H]1O [DOXERCALCIFEROL]  Population Mitotic Cells (%)          %                   69
6  CN1C2CCC1CC(OC(c1ccc(F)cc1)c1ccc(F)cc1)C2.Cl (stereo unspecified)  Population Mitotic Cells (%)          %                   36
7  CN(C)C(=O)C(CCN1CCC(O)(c2ccc(Cl)cc2)CC1)(c1ccccc1)c1ccccc1.Cl [LOPERAMIDE HYDROCHLORIDE]  Population Mitotic Cells (%)          %                   35
8  CCOc1cc2ncc(C#N)c(Nc3ccc(OCc4ccccn4)c(Cl)c3)c2cc1NC(=O)/C=C/CN(C)C [NERATINIB]  Population Mitotic Cells (%)          %                   54

Lab note: need Population Mitotic Cells (%) with Fibroblast for entry O=C1NC(=O)C(c2cnc3ccccn23)=C1c1cn2c3c(cc(F)cc13)CN(C(=O)N1CCCCC1)CC2 [LY-2090314] , please look it up.
38

And what about the compound O=C(Nc1ccc(-n2nc(-c3cccnc3)cc2C(F)(F)F)cn1)c1ccc(-c2ccccc2)c(F)c1 [BI 2049] ?
41

Would you mind doing "CCCS(=O)(=O)c1nc(NC2CC2)cc(-c2ccc3c(ccn3C3CC(C)(C)NC(C)(C)C3)c2)n1" as well?
28

Now consider CCOC(=O)c1c(C)[nH]c2ccc3c(c12)CN1CCc2cc(OC)ccc2C1O3 (stereo unspecified) and answer again.
17

Next entry: "CCc1cccc(CC)c1NC(=O)c1nn(C)c2c1CCc1cnc(Nc3ccc(N4CCN(C)CC4)cc3OC)nc1-2"
28

###

Test system: U2OS
Assay: Multiplex assay against U2OS
Type: toxicity, cell-based
Conditions: human, 12 h, 10 µM, compound concentration 10 uM, replicate 1
Population Membrane Permeable-Phenotype (%) vs 20%: less than gives y; not less than gives n.

> print(dat)
                                   molecule  assigned.category
1  O=C1N/C(=N/c2ccccc2F)S/C1=C\c1ccc(C(=O)O)cc1                  y

# TODO verify Population Membrane Permeable-Phenotype (%) < 20% strictly for this molecule: "O=C1NC(=O)C(c2cnc3ccccn23)=C1c1cn2c3c(cc(F)cc13)CN(C(=O)N1CCCCC1)CC2"
n

Also, CN1CCC(=C2c3ccccc3CC(=O)c3sccc32)CC1.O=C(O)/C=C/C(=O)O [KETOTIFEN FUMARATE] please.
y

Record: "C=CCn1c(=O)c2cnc(Nc3ccc(N4CCN(C)CC4)cc3)nc2n1-c1cccc(C(C)(C)O)n1"
n

// next record "CCCS(=O)(=O)c1nc(NC2CC2)cc(-c2ccc3c(ccn3C3CC(C)(C)NC(C)(C)C3)c2)n1"
y

Now the molecule "CCCn1c(=O)c2[nH]c(-c3cnn(Cc4cccc(C(F)(F)F)c4)c3)nc2n(CC)c1=O"
n

Further, for "Cc1cc(C)c(S(=O)(=O)N(Cc2ccc(-c3cccc(S(C)(=O)=O)c3)cc2)Cc2ccc(C(F)(F)F)o2)c(C)c1" ?
n

For "Cc1cn(-c2cc(NC(=O)c3ccc(C)c(Nc4nccc(-c5cccnc5)n4)c3)cc(C(F)(F)F)c2)cn1" then?
n
